Listed molecules paired with reported pIC50
Sequence of the target: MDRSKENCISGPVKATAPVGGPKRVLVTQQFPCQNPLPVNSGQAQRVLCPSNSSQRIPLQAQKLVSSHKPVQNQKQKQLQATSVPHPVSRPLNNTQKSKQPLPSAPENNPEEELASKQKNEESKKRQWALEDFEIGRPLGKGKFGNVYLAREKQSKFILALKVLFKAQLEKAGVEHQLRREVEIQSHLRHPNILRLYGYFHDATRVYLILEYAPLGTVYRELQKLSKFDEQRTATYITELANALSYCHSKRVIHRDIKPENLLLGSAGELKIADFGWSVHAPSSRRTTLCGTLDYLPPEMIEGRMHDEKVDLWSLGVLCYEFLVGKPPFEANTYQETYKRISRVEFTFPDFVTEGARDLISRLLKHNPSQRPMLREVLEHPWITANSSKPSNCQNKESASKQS
pIC50: −log10 of the molar value.

[[record]]
molecule = "CCC1CCCCN1S(=O)(=O)c1ccc(-c2ccnc(Nc3cccc(C(C)O)c3)n2)s1 (stereo not drawn)"
valuemeasured = "6.30 to 7.00"

[[record]]
molecule = "CCN(CCC#N)S(=O)(=O)c1ccc(-c2ccnc(Nc3cccc(C)c3)n2)s1"
valuemeasured = "> 7.00"

[[record]]
molecule = "COc1ccc(Nc2nccc(-c3ccc(Br)s3)n2)cc1OC"
valuemeasured = "> 7.00"


*Q* Requested field: pIC50. Item: O=C(NCc1ccccc1)c1ccc(-c2ccnc(Nc3ccc(CCO)cc3)n2)s1
*A* > 7.00

*Q* # pIC50 lookup, item NC(=O)c1cccc(Nc2nccc(-c3ccc(Br)s3)n2)c1
*A* 6.30 to 7.00

*Q* What pIC50 value was documented for this molecule, CC(O)c1cccc(Nc2nccc(-c3ccc(-c4ccncc4)s3)n2)c1 (stereo not drawn) ?
*A* < 6.30

*Q* Would you kindly share the measured pIC50 for CN(C)C(=O)c1cccc(Nc2nccc(-c3ccc(Br)s3)n2)c1 ?
*A* 6.30 to 7.00

*Q* Report pIC50 for CC(O)c1cccc(Nc2nccc(-c3ccc(S(=O)(=O)Cc4ccccc4)s3)n2)c1 (stereo not drawn) please.
*A* 6.30 to 7.00

*Q* Report pIC50 for CC(O)c1cccc(Nc2nccc(-c3ccc(CNC(=O)c4ccccc4)s3)n2)c1 (stereo not drawn) please.
*A* 6.30 to 7.00

*Q* What does the data say about its pIC50? Entry: CC(O)c1cccc(Nc2nccc(-c3ccc(-c4cccc(CC#N)c4)s3)n2)c1 (stereo not drawn)
*A* 6.30 to 7.00

*Q* # query: pIC50 of entry CCC(=O)Nc1ccc(-c2ccnc(Nc3cccc(C)c3)n2)s1
*A* 6.30 to 7.00

*Q* What does the record list as pIC50 for CC(O)c1cccc(Nc2nccc(-c3ccc(-c4cccnc4)s3)n2)c1 (stereo not drawn) ?
*A* 6.30 to 7.00

---

# pIC50 measurements, system: MET kinase (Homo sapiens, UniProt P08581)
# Sequence (P08581 1078-1345 limits assumed): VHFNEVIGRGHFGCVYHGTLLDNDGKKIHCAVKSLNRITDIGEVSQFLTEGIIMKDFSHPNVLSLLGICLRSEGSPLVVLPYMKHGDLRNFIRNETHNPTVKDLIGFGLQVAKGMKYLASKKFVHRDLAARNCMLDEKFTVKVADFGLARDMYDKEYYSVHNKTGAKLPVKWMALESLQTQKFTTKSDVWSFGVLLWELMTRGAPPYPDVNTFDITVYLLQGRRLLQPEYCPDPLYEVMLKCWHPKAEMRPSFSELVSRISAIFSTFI
pIC50: −log10 of the molar value.

Use the examples below as a reference point.
[[record]]
compound = "CC(O)c1cccc(Nc2nccc(-c3ccc(S(=O)(=O)N(C)C)s3)n2)c1 (centres unmarked)"
valuemeasured = "5.30 to 6.00"

[[record]]
compound = "C[C@@H](NC(=O)c1ccc(-c2ccnc(Nc3cccc(CN4CCN(CCO)CC4)c3)n2)s1)c1ccccc1"
valuemeasured = "> 6.00"

[[record]]
compound = "O=C(NCc1ccccc1)c1ccc(-c2ccnc(Nc3ccc(CCO)cc3)n2)s1"
valuemeasured = "5.30 to 6.00"

[[record]]
compound = "COc1ccc(Nc2nccc(-c3ccc(Br)s3)n2)cc1C(=O)N(C)C"
valuemeasured = "5.30 to 6.00"


For the next question, use this compound.
*Q* Record CCN(CCC#N)S(=O)(=O)c1ccc(-c2ccnc(Nc3cccc(C(C)O)c3)n2)s1 (centres unmarked) : what is its pIC50 with MET kinase (Homo sapiens, UniProt P08581)?
*A* > 6.00
